biological target: mTORC2 (Homo sapiens, UniProt P42345+P62942); construct: endogenous in cells; host or cells: PC3 cells (human prostate adenocarcinoma); experiment: Inhibition assay for mTORC2: phosphorylation of pAkt at Ser473, AlphaLISA in PC3 cells; format: cell-based; conditions: read-out: pIC50 mTORC2 (converted)
Sequence (P62942 2-108 limits assumed, other chains not shown): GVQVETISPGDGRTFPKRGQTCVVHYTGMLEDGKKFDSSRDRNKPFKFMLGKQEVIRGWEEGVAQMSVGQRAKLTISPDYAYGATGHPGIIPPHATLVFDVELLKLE
For each of the compounds below, state its IC50.

| COMPOUND | QUANTITY | RECORDED_RESULT |
| --- | --- | --- |
| COCO[C@@H]1CC[C@@H](C[C@@H](C)[C@@H]2CC(=O)[C@H](C)/C=C(\C)[C@@H](O)[C@@H](OC)C(=O)[C@H](C)C[C@H](C)/C=C/C=C/C=C(\C)C(OC)C[C@@H]3CC[C@@H](C)[C@@](O)(O3)C(=O)C(=O)N3CCCCC3C(=O)O2)C[C@H]1OC (stereo partly shown) | IC50 | < 1000 nM |
| CO[C@@H]1C[C@H](C[C@@H](C)[C@@H]2CC(=O)[C@H](C)/C=C(\C)[C@@H](O)[C@@H](OC)C(=O)[C@H](C)C[C@H](C)/C=C/C=C/C=C(\C)C(OCC(C)(C)O)C[C@@H]3CC[C@@H](C)[C@@](O)(O3)C(=O)C(=O)N3CCCCC3C(=O)O2)CC[C@H]1O (stereo partly shown) | IC50 | 1000 to 10000 nM |
| CO[C@@H]1C[C@H](C[C@@H](C)[C@@H]2CC(=O)[C@H](C)/C=C(\C)[C@@H](O)[C@@H](OC)C(=O)[C@H](C)C[C@H](C)/C=C/C=C/C=C(\C)C(OCCC3CCOCC3)C[C@@H]3CC[C@@H](C)[C@@](O)(O3)C(=O)C(=O)N3CCCCC3C(=O)O2)CC[C@H]1O (stereo partly shown) | IC50 | 1000 to 10000 nM |

For every listed record, write down its IC50.
1. COCCOC1C[C@@H]2CC[C@@H](C)[C@@](O)(O2)C(=O)C(=O)N2CCCCC2C(=O)O[C@H]([C@H](C)C[C@@H]2CC[C@@H](O)[C@H](OC)C2)CC(=O)[C@H](C)/C=C(\C)[C@@H](O)[C@@H](OC)C(=O)[C@H](C)C[C@H](C)/C=C/C=C/C=C/1C (stereo partly shown)
2. COC1CC2CCC(C)C(O)(O2)C(=O)C(=O)N2CCCCC2C(=O)OC(C(C)CC2CCC(O[Si](C)(C)C(C)(C)C)C(OC)C2)CC(=O)C(C)C=C(C)C(O)C(OC)C(=O)C(C)CC(C)C=CC=CC=C1C (stereo not shown)
3. COC1C[C@@H]2CC[C@@H](C)[C@@](O)(O2)C(=O)C(=O)N2CCCCC2C(=O)O[C@H]([C@H](C)C[C@@H]2CC[C@@H](OCCCN3CCC(O)CC3)[C@H](OC)C2)CC(=O)[C@H](C)/C=C(\C)[C@@H](O)[C@@H](OC)C(=O)[C@H](C)C[C@H](C)/C=C/C=C/C=C/1C (stereo partly shown)
4. CO[C@@H]1C[C@H](C[C@@H](C)[C@@H]2CC(=O)[C@H](C)/C=C(\C)[C@@H](O)[C@@H](OC)C(=O)[C@H](C)C[C@H](C)/C=C/C=C/C=C(\C)C(c3ccc(C)s3)C[C@@H]3CC[C@@H](C)[C@@](O)(O3)C(=O)C(=O)N3CCCCC3C(=O)O2)CC[C@H]1O (stereo partly shown)

Response:
1: 1000 to 10000 nM; 2: 1000 to 10000 nM; 3: < 1000 nM; 4: 1000 to 10000 nM
